Below: a set of entries, each annotated with reported inhibition.
# target: NAD-dependent protein deacetylase sirtuin-2 (Homo sapiens) (UniProt Q8IXJ6)
# Sequence (Q8IXJ6 whole entry): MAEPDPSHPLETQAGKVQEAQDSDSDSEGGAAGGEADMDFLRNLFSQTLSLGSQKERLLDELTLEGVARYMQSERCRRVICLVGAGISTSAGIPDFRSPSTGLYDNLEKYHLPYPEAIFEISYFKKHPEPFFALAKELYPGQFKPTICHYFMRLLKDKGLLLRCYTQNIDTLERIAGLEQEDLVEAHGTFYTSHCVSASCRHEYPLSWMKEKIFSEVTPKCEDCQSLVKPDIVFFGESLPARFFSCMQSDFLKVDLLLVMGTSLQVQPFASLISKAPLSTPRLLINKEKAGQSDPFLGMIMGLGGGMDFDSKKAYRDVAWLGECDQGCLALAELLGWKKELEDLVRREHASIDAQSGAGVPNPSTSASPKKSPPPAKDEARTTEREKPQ
# assay.explanation: Inhibition of human recombinant SIRT2 expressed in Escherichia coli at 50 uM incubated at 37 degC for 2 hrs by Fluor de Lys fluorescence assay
test.readout: inhibition (%)

> print(dat)
                                    molecule  scale.unit  value.measured
 1  Cc1ccccc1C(=O)C1Cc2c(ccc3ccccc23)OC1=O (stereo not given)           %            88.2
 2  O=C(CCc1ccccc1)C1Cc2c(ccc3ccccc23)OC1=O (stereo not given)           %            85.8
 3  O=c1[nH]c(=S)[nH]c(Cc2ccccc2)c1Cc1c(O)ccc2ccccc12           %            47.4
 4  O=C1Oc2ccc3ccccc3c2CC1C(=O)c1ccoc1 (stereo not given)           %            89.9
 5  O=C1Oc2ccc3ccccc3c2CC1C(=O)c1cc2ccccc2o1 (stereo not given)           %            35.6
 6  O=c1[nH]c(=S)[nH]c(-c2ccoc2)c1Cc1c(O)ccc2ccccc12           %            43.8
 7  O=c1[nH]c(=S)[nH]c(-c2cccc(Cl)c2)c1Cc1c(O)ccc2ccccc12           %            36.1
 8  O=c1[nH]c(=S)[nH]c(-c2ccc(Cl)cc2)c1Cc1c(O)ccc2ccccc12           %            35.9
 9  Cc1ccc(C(=O)C2Cc3c(ccc4ccccc34)OC2=O)cc1 (stereo not given)           %            89.8
10  O=c1[nH]c(=S)[nH]c(CCc2ccccc2)c1Cc1c(O)ccc2ccccc12           %            49.8
11  O=c1[nH]c(=S)[nH]c(-c2ccco2)c1Cc1c(O)ccc2ccccc12           %            45.9
12  O=C1Oc2ccc3ccccc3c2CC1C(=O)c1cc2ccccc2s1 (stereo not given)           %            38.2
13  Cn1cccc1C(=O)C1Cc2c(ccc3ccccc23)OC1=O (stereo not given)           %            76.7
14  O=C(Cc1ccccc1)C1Cc2c(ccc3ccccc23)OC1=O (stereo not given)           %            81.2
15  O=C1Oc2ccc3ccccc3c2CC1C(=O)c1ccsc1 (stereo not given)           %            78.9
